// provenance: patent US20210095028A1

Biological target: T1, cynomolgus TIGIT over-expressed on CHO-K1 cells (cynomolgus, UniProt A0A7N9I9V4 89-312)
T1 construct: whole, on cells; also called CHO-K1/cynomolgus TIGIT cells
T1 sequence (A0A7N9I9V4 entry or part of it): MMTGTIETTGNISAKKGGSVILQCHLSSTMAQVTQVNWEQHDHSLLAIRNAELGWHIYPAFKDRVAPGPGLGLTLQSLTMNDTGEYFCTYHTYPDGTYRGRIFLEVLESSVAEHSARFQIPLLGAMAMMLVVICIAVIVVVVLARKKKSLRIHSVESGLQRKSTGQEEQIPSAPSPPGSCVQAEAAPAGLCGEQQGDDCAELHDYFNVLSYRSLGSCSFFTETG
Test: FACS, CHO-K1 cells over-expressing cynomolgus TIGIT
reported.endpoint: Bottom (best-fit)
Answer using only a numeral; do not append any unit.

64G1E9B4 (antibody, V domains shown, Mouse monoclonal antibody; also called mouse anti-human TIGIT monoclonal antibody 64G1E9B4) VH: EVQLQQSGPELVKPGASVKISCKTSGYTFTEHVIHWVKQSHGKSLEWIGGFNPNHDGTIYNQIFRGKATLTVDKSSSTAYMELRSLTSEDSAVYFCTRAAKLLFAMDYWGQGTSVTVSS VL: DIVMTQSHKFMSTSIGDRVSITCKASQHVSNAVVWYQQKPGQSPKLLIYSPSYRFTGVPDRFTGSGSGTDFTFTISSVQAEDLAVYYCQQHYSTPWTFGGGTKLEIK
15.3
104G12E12G2 (antibody, V domains shown, Mouse monoclonal antibody; also called mouse anti-human TIGIT monoclonal antibody 104G12E12G2) VH: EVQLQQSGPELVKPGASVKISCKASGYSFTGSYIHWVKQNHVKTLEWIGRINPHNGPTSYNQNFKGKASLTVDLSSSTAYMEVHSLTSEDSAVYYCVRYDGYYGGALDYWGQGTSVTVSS VL: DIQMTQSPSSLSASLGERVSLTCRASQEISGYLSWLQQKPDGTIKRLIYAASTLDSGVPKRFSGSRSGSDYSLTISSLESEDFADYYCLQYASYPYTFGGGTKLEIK
7

Please fill in: Bottom (best-fit) reported for 83G6H11C12 (antibody, V domains shown, Mouse monoclonal antibody; also called mouse anti-human TIGIT monoclonal antibody 83G6H11C12) VH: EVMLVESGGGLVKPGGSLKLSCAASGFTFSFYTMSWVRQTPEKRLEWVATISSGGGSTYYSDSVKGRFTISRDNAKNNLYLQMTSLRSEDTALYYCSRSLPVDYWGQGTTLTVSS VL: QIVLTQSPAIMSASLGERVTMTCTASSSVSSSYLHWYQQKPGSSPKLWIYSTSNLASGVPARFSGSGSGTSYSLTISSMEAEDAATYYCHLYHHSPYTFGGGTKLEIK = 16.1
